Test system: A498 renal
Assay: NCI tumour cell line growth inhibition, 48 h
assayMetric: GI50

# count of solved cases: 10
>>> reading("CN1CC(CNC(=O)OCc2ccccc2)CC2c3cccc4c3c(cn4C)CC21 (stereo unspecified)")
"3.47 µM"
>>> reading("O=C(NO)c1ccc(Cn2c(=O)n(-c3ccccc3F)c(=O)c3ccccc32)cc1")
"1.02 µM"
>>> reading("O=C(Nc1nc2ccc(F)cc2s1)c1cccnc1Nc1ccc(Cl)cc1")
"1.8 µM"
>>> reading("COc1cnc2c(c1)C(=O)c1c-2n(CCCNC(C)C)c(=O)c2cc(F)ccc12")
"0.199 µM"
>>> reading("O=C(NN=C1CCCCC1)c1[nH]c2ccc(F)cc2c1-c1ccccc1")
"38.1 µM"
>>> reading("CC1=C([Te]c2ccc(O)cc2)C(=O)c2ccccc2C1=O")
"1.36 µM"
>>> reading("CCN(CC)CCCC(C)N=c1cc(Nc2cc(=NC(C)CCCN(CC)CC)c3cc(OC)ccc3o2)oc2ccc(OC)cc12 (stereo unspecified)")
"1.15 µM"
>>> reading("NC1=NCCN1CC(=O)O")
"> 10000 µM"
>>> reading("O=C(/C(=C/c1ccc([N+](=O)[O-])cc1)SCc1ccc(F)cc1)c1ccc(Cl)cc1")
"> 100 µM"
>>> reading("C=CN(C)S(C)(=O)=O")
"> 100 µM"

As a next step, examine the compound that follows.
Could you share which GI50 value was measured for CN(C)CCOC(c1ccccc1)c1ccccc1 ?
40.9 µM

###

Tested on: SF-539 CNS
Assay: NCI tumour cell line growth inhibition, 48 h; in the data active = GI50 below about 0.43 µM; inactive = the rest
Mark one answer only. Choices: active, inactive

Below, 6 compounds whose answers are already recorded.
>>> assignedlabel("O=c1c2c3c(sc2nc(N/N=C/c2ccc(Br)cc2)n1Cc1ccccc1)CCCC3")
"inactive"
>>> assignedlabel("CC[C@@]1(O)C(=O)OCc2c1cc1n(c2=O)Cc2c-1nc1cc3c(cc1c2C)OCO3")
"active"
>>> assignedlabel("C=CN(C)S(C)(=O)=O")
"inactive"
>>> assignedlabel("CN(C)CCCNC(=O)c1cncnc1Nc1ccc(OCc2cccc(F)c2)c(Cl)c1")
"inactive"
>>> assignedlabel("CCc1ccc2c(c1)N(CCO)C1=C(C(=O)OC1)C2c1cccc(Cl)c1 (stereo not given)")
"inactive"
>>> assignedlabel("OCC1OC(n2cnc3c(Cl)nc(Cl)cc32)C(O)C1O (stereo not given)")
"inactive"

Which outcome was assigned to CCCCN(CCCC)CCCn1c(=O)c2c3ccccc3n(C)c2n2nnc(-c3ccccc3)c12 in this test?
inactive

###

System: 786-0 renal
Experiment: NCI tumour cell line growth inhibition, 48 h; in the data active means GI50 below about 0.43 µM; inactive means the rest
Bench note: report the call from active, inactive

Please review the following examples before continuing.
>>> assignedlabel("COc1ccc(-c2cc(-c3ccc(O)cc3)nc3n[nH]c(N)c23)cc1")
"inactive"
>>> assignedlabel("COc1cc(-c2nn(-c3cccc(NC(=O)c4ccc(N5CCOCC5)c(C(F)(F)F)c4)c3)cc2-c2ccncc2)ccc1Cl")
"inactive"
>>> assignedlabel("CCN(CC)CCCC(C)N=c1cc(Nc2cc(=NC(C)CCCN(CC)CC)c3cc(OC)ccc3o2)oc2ccc(OC)cc12 (stereo not drawn)")
"inactive"

Just curious, what result did CCOC(=O)/C(=C(/C)NCC(C)C)c1cc(O)c(O)c2c(C)cc(=O)[nH]c12 get here?
inactive

Please give the result for CCC[CH2][Sn]1([CH2]CCC)[O]C(=O)c2ccc(C)cc2[O]1 too.
inactive

Further, for O=C(NN=C1CCCCC1)c1[nH]c2ccc(F)cc2c1-c1ccccc1 ?
inactive

// next record CC(=O)[C@@]1(O)[C@H](C)C[C@H]2[C@@H]3C=C(C)C4=Cc5c(cnn5-c5ccccc5)C[C@]4(C)[C@H]3[C@@H](O)C[C@@]21C
inactive

Same again, this time with O=C(NO)c1ccc(Cn2c(=O)n(-c3ccccc3F)c(=O)c3ccccc32)cc1
inactive

###

Tested on: KM12 colon
Assay: NCI tumour cell line growth inhibition, 48 h
Listed below: TGI values for each entry.

Example entries begin here.
>>> reading("CCN(CC)CCCC(C)N=c1cc(Nc2cc(=NC(C)CCCN(CC)CC)c3cc(OC)ccc3o2)oc2ccc(OC)cc12 (stereo not drawn)")
"5.63 µM"
>>> reading("O=C1C(=Cc2cccc(O)c2)N=C(c2ccccc2)N1n1c(-c2ccccc2)nc2ccccc2c1=O")
"56.4 µM"
>>> reading("C=CCSSCC=C")
"> 100 µM"

Consider the molecule C#CCCCOc1ncccn1 and give its measured TGI.
> 100 µM

Next molecule up: C[C@]12CC[C@H](O)CC1=CC[C@@H]1[C@@H]2CC[C@]2(C)C(=N/O)/C(=C/c3ccc([N+](=O)[O-])cc3)C[C@@H]12
60.1 µM

Cool, now N#Cc1nc(C(CO)N(Cc2ccccc2)C(=O)O)oc1N (stereo not drawn)
> 100 µM

Another molecule: C[n+]1ccc(-c2c3nc(c(-c4cc[n+](C)cc4)c4ccc([n-]4)c(-c4cc[n+](C)cc4)c4nc(c(-c5cc[n+](C)cc5)c5ccc2[n-]5)C=C4)C=C3)cc1.[I-].[Zn+2]
69.5 µM

// repeat for COc1ccc(-c2c(-c3cc(OC)c(OC)c(OC)c3)noc2N)cc1 and report
> 36.6 µM

Param item: COC(=O)Nc1nc2ccc(NC(=O)c3cccs3)cc2[nH]1
> 100 µM

Similarly, Cc1nc(C(N)=S)sc1C(=O)CC(=O)C(=O)Nc1nc2ccccc2[nH]1 ?
> 100 µM

###

Tested on: SW-620 colon
Assay: NCI tumour cell line growth inhibition, 48 h
// values below are reported TGI
The answer is to be given in µM; state only the numeric part.

Previously resolved entries follow.
>>> reading("NS(=O)(=O)c1ccc(Nc2c3ccccc3nc3c(C(=O)NCCO)cccc23)cc1")
0.277
>>> reading("COc1cc(/C=C/C(=O)CC(=O)/C=C/c2ccc(O)c(OC)c2)ccc1O")
21.2
>>> reading("C[n+]1ccc(-c2c3nc(c(-c4cc[n+](C)cc4)c4ccc([n-]4)c(-c4cc[n+](C)cc4)c4nc(c(-c5cc[n+](C)cc5)c5ccc2[n-]5)C=C4)C=C3)cc1.[I-].[Zn+2]")
45.7

Quick one: TGI of c1ccc(C(=NNc2cnc3ccccc3n2)c2ccccn2)cc1 ?
22.5

###

Tested on: HCC-2998 colon
Assay: NCI tumour cell line growth inhibition, 48 h
Overview of recorded TGI for various molecules

Completed entries (count: 5):
>>> reading("O=C(Oc1ccc(Cl)cc1[N+](=O)[O-])c1ccccc1")
"> 100 µM"
>>> reading("CN(C)Cc1cc(C=O)cc(CN(C)C)c1O")
"> 100 µM"
>>> reading("C#CCCCOc1ncccn1")
"> 100 µM"
>>> reading("COC(=O)/C=C(\\S/C(=N\\n1cc(C(=O)OC)c(C(=O)OC)c1-c1ccc(C)cc1)c1ccc(C)cc1)C(=O)OC")
"34 µM"
>>> reading("COC(=O)/C=C/c1cn(C(C)=O)c2ccc(Br)cc12")
"64.8 µM"

Consider the molecule shown here: O=[N+]([O-])c1cc(Cl)cc2cc(Br)cnc12 What is its recorded TGI?
> 31.6 µM

Again, but for CN(C)CCOC(c1ccccc1)c1ccccc1
> 100 µM

Next: CCN(CC)CCCC(C)N=c1cc(Nc2cc(=NC(C)CCCN(CC)CC)c3cc(OC)ccc3o2)oc2ccc(OC)cc12 (stereo unspecified)
7.14 µM

What would you report for CN(C)/C=N/NC(=O)/C(C#N)=C/N(C)C ?
> 100 µM

Try the molecule CCOC(=O)C(NCc1cccc(C(F)(F)F)c1)(NC(=O)CC)C(F)(F)F (stereo unspecified)
> 100 µM

Entry Cc1ccc(-c2nc(N3CCCNCC3)c3oc(-c4ccccc4)nc3n2)cc1 please
3.27 µM

###

# maps each entry to its TGI
Test system: NCI/ADR-RES ovarian
Test: NCI tumour cell line growth inhibition, 48 h

Fill in the blank: the reported TGI of c1ccc(CN=C(NCc2ccccc2)NCc2ccccc2)cc1 is ____.
> 100 µM

What do we get for COc1ccc(-c2c(-c3cc(OC)c(OC)c(OC)c3)noc2N)cc1 ?
0.0226 µM

Would you mind doing Cn1c2c3ccc(Cl)cc3nc-2c(Cl)c2ccccc21 as well?
69.2 µM

Continue with CCCC(=O)O.CCCC(=O)O.CCCC(=O)O.CCCC(=O)O.[Rh].[Rh]
0.589 µM

Field entry: CNC(=O)c1cccc2c(Nc3ccc(NS(C)(=O)=O)cc3OC)c3cccc(C)c3nc12
9.36 µM

And then O=C(NO)c1ccc(Cn2c(=O)n(-c3ccccc3F)c(=O)c3ccccc32)cc1 , what is it?
43 µM

Consider next the compound Cc1ccc2c(=O)cc(-c3ccsc3)[nH]c2n1 in the same way.
> 20.5 µM

One more compound: CCOC(=O)C1=CC(C)(C(=O)OCC)Nc2c(nc(OC)[nH]c2=O)N1 (stereo not drawn)
> 10 µM

What about CN1CC(CNC(=O)OCc2ccccc2)CC2c3cccc4c3c(cn4C)CC21 (stereo not drawn) ?
4.49 µM

What do you get for CC(=O)O[C@H]1CCC2[C@@H]3CCC4Cc5nc6c(nc5C[C@]4(C)C3CC[C@@]21C)CC1CC[C@@H]2C(CC[C@@]3(C)C2CC[C@@H]3C(C)CCCC(C)C)[C@@]1(C)C6 (stereo partly drawn) ?
> 100 µM
